- assayText: chemical genetic growth profiling, strain panel (AID 1159580);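 further: tested at 20 µM; growth read once vehicle control cultures reached saturation at 30 °C; 1 = growth at the plate median or of vehicle wells; lower values mean less growth of the strain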
- studyConditions: S. cerevisiae deletion strains, growth OD, locus YOR061W, strain CKA2, hits give low values
The campaign covered roughly 5,500 compounds. About 2,000 (36%) were called active. Not shown: some 18% with an inconclusive outcome. The list shows a part of the results.
resultType: normalized growth
Just the number.

normalized growth reported for this compound COc1ccc2c3c1OC1C(O)CC=C4C(C2)N(C)CCC431 (centres undefined) : 1.02

normalized growth reported for this compound Cc1cc(Cl)ccc1NNC(=O)c1sccc1Br : 0.868

normalized growth reported for this compound O=c1c(O)c(-c2ccc(O)cc2O)oc2cc(O)cc(O)c12 : 0.97

normalized growth reported for this compound CCOCN(C(=O)CCl)c1c(C)cccc1CC : 0.999

normalized growth reported for this compound COc1cc(OC)c2ccc(=O)oc2c1 : 1

normalized growth reported for this compound O=C1Nc2ccccc2/C1=C/c1ccc(Oc2ccccc2)nc1 : 0.843

normalized growth reported for this compound COCCCNC(=S)N/N=C\c1cc(Cl)cc(Cl)c1O : 0.951

normalized growth reported for this compound O=C(O[C@@H]1Cc2c(O)cc(O)cc2O[C@@H]1c1cc(O)c(=O)c2c(O)c(O)cc([C@H]3Oc4cc(O)cc(O)c4C[C@H]3OC(=O)c3cc(O)c(O)c(O)c3)c2c1)c1cc(O)c(O)c(O)c1 : 0.848

normalized growth reported for this compound CCOC(=O)N/N=C\c1cc(Cl)cc(Cl)c1O : 0.471

normalized growth reported for this compound CO[C@@]1(NC(=O)C(C(=O)O)c2ccc(O)cc2)C(=O)N2C(C(=O)O)=C(CSc3nnnn3C)CO[C@@H]21 (some centres undefined) : 1

normalized growth reported for this compound C[C@@H]1O[C@@H](OC[C@H]2OC(Oc3c(-c4ccc(O)c(O)c4)oc4cc(O)cc(O)c4c3=O)[C@H](O)[C@@H](O)[C@@H]2O)[C@H](O)[C@H](O)[C@H]1O (some centres undefined) : 1.01

normalized growth reported for this compound COc1cc(Br)cc(C=Nc2ccc(Sc3ccccc3)nc2Sc2ccccc2)c1O : 0.824

normalized growth reported for this compound CC12CCC3c4ccc(OC(=O)c5ccccc5)cc4CCC3C1CCC2O (centres undefined) : 1

normalized growth reported for this compound O=c1cc(-c2ccc(O)cc2)oc2cc(O[C@@H]3O[C@H](CO)[C@@H](O)[C@H](O)[C@H]3O)cc(O)c12 : 0.979

normalized growth reported for this compound Cc1cc(C2CCCCC2)n(O)c(=O)c1 : 0.0512

normalized growth reported for this compound CC(C)(C)C(=O)NC(=S)N/N=C\c1cc(Cl)cc(Cl)c1O : 0.245

normalized growth reported for this compound O=C(NNc1ccc(F)cc1F)c1sccc1Cl : 0.83

normalized growth reported for this compound CC(C)c1c(O)c(-c2cc3c(c(C(C)C)c2O)CCC2C(C)(C)CCC[C@]32C)cc2c1CCC1C(C)(C)CCC[C@]21C (some centres undefined) : 1.02

normalized growth reported for this compound COc1ccccc1/C=C\C(=O)O : 1.02

normalized growth reported for this compound CCCCCc1c2c(cc(O)c1C(=O)O)OC(=O)c1c(cc(OC)cc1C(=O)CCCC)O2 : 0.942

normalized growth reported for this compound O=C(Nc1ccccc1)Nc1ccc(Cl)cc1[N+](=O)[O-] : 0.956

normalized growth reported for this compound OCC(O)C(O)C(O)C(O)C(O)CO (centres undefined) : 0.984

normalized growth reported for this compound COc1cccc2c(C)cc(=O)[nH]c12 : 0.965

normalized growth reported for this compound O=C1Nc2ccccc2/C1=C\c1c(Cl)cccc1Cl : 0.959
